For each entry below, report its inhibition value.
- experimental.target: FAD-linked sulfhydryl oxidase ALR (Homo sapiens) (UniProt P55789)
- Sequence (P55789 whole entry, looked up): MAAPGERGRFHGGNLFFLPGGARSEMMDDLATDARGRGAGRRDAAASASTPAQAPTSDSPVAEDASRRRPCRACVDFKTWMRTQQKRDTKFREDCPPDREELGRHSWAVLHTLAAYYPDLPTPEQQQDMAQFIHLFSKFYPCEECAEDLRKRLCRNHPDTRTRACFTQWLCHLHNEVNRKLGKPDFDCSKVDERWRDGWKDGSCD
- measurement.description: ALR-catalysed DTT oxidation blockers – biochemical, H2O2 detection, HRP-luminol luminescence, single point, primary screen (AID 485317)
- assay.setup: purified ALR, stronger effect = higher value, concentration not given here
Hit rate of the full screen: of about 290,000 compounds, about 11,000 (3.8%) were called active. The entries come from a sample that favours actives as a whole.

compound: COc1ccc2c(CC(=O)NNC(=O)c3ccccc3F)coc2c1
experimental.target: FAD-linked sulfhydryl oxidase ALR (Homo sapiens) (UniProt P55789)
inhibition: -9.32% (inactive)
//
compound: Cc1ccc(N2C(=O)CC(Sc3ncn[nH]3)C2=O)cc1 (stereo not drawn)
experimental.target: FAD-linked sulfhydryl oxidase ALR (Homo sapiens) (UniProt P55789)
inhibition: 45.4% (inactive)
//
compound: CCCn1nc(C(=O)NNC(=O)CCOc2ccccc2OCC)c2ccccc2c1=O
experimental.target: FAD-linked sulfhydryl oxidase ALR (Homo sapiens) (UniProt P55789)
inhibition: 16.7% (inactive)
//
compound: O=C(Nc1ccc(C(=O)N2CCOCC2)cc1)Nc1cccc(C(F)(F)F)c1
experimental.target: FAD-linked sulfhydryl oxidase ALR (Homo sapiens) (UniProt P55789)
inhibition: -2.29% (inactive)

Below are some compounds; for each one, tell me its inhibition.
1. COc1cc(C2C(C(=O)c3cccs3)=C(O)C(=O)N2CCN2CCOCC2)ccc1OCCC(C)C (stereo not drawn)
2. COc1ccc(-c2nc(SCC(=O)N3CCCC3)n[nH]2)cc1
3. O=C(/C=C(O)/C=C/c1ccc(O)cc1)/C=C/c1ccc(O)cc1
4. CCN(CC(=O)Nc1ccc(OC)cc1)C(=O)c1ccc(=O)n(Cc2ccccc2)n1
5. O=C(CN1CCN(c2ccc(Cl)cc2)CC1)N1CCCC1
6. O=C(CN1C2=NCCN2c2ccccc21)c1cccs1

-0.637% (inactive)
-0.237% (inactive)
-0.191% (inactive)
0.415% (inactive)
97.8% (active)
17.3% (inactive)
